IC50 values for Poly [ADP-ribose] polymerase 1 (Homo sapiens, UniProt P09874), compiled from several publications.
Write the value in nM as a bare number.

INPUT: Report its IC50 with Poly [ADP-ribose] polymerase 1 (Homo sapiens, UniProt P09874) as the test system: O=C(c1cc(Cc2n[nH]c(=O)c3ccccc23)ccc1F)N1CC2CN(c3ccccc3)CC2C1 (centres unmarked)
OUTPUT: 11.5

INPUT: Report its IC50 with Poly [ADP-ribose] polymerase 1 (Homo sapiens, UniProt P09874) as the test system: O=C1NOCc2c(-c3ccc(C4CCCN4)nc3)[nH]c3cccc1c23 (centres unmarked)
OUTPUT: 2.8

INPUT: Report its IC50 with Poly [ADP-ribose] polymerase 1 (Homo sapiens, UniProt P09874) as the test system: COCCNCc1ccc2c(c1)Cc1c-2[nH]c(=O)c2c1CCCC2
OUTPUT: 8.9

INPUT: Report its IC50 with Poly [ADP-ribose] polymerase 1 (Homo sapiens, UniProt P09874) as the test system: CCc1cc2ncc(CN3C[C@H](Oc4cnc(C(=O)NC)c(F)c4)[C@H]3C)cc2[nH]c1=O
OUTPUT: 6.1

---

pIC50: −log10 of the molar value.
pIC50 values for UniProt:P09874, compiled from several publications.
Mark 1 for reported pIC50 of 6 or greater; mark 0 for anything smaller.

INPUT: Assess whether reported pIC50 for O=C(CN1CCC(c2noc3cc(F)ccc23)CC1)NCc1nc2c(c(=O)[nH]1)COCC2 sits at 6 or higher.
OUTPUT: 0

INPUT: Assess whether reported pIC50 for Cn1ccc2c(=O)[nH]c(N3CCN(c4ccccc4F)CC3)cc21 sits at 6 or higher.
OUTPUT: 0

INPUT: Assess whether reported pIC50 for O=C(CCCc1nc2ccccc2c(=O)[nH]1)N1CCC(c2nnc(-c3cccc(Cl)c3)o2)CC1 sits at 6 or higher.
OUTPUT: 0

INPUT: Assess whether reported pIC50 for Cc1cccc2c(=O)[nH]c3c(c12)COC(C(C)(C)COCc1ccccc1)C3 (stereo not shown) sits at 6 or higher.
OUTPUT: 1

INPUT: Assess whether reported pIC50 for CCc1cc2ncc(CN3CC(Oc4ccc(C#N)cc4)C3)cc2[nH]c1=O sits at 6 or higher.
OUTPUT: 1

INPUT: Assess whether reported pIC50 for O=C(CSc1nc2ccccc2c(=O)[nH]1)N[C@H]1CC[C@H](c2nnc(-c3ccccc3)o2)CC1 sits at 6 or higher.
OUTPUT: 0

INPUT: Assess whether reported pIC50 for [2H][C@]1(c2ccc(-n3cc4cccc(C(N)=O)c4n3)cc2F)CCCNC1 sits at 6 or higher.
OUTPUT: 1

INPUT: Assess whether reported pIC50 for O=C(c1cc(Cc2n[nH]c(=O)c3ccccc23)ccc1F)N1CC2CN(Cc3ccc(F)cc3F)CC2C1 (stereo not shown) sits at 6 or higher.
OUTPUT: 1

INPUT: Assess whether reported pIC50 for O=C(c1cc(Cc2n[nH]c(=O)c3ccccc23)ccc1F)N1Cc2cn[nH]c2C1 sits at 6 or higher.
OUTPUT: 1

INPUT: Assess whether reported pIC50 for C[C@H]1COCCN1c1nc(-c2cnc(N)nc2)nc2c1CCN(C(=O)c1cc(Cc3n[nH]c(=O)c4ccccc34)ccc1F)C2 sits at 6 or higher.
OUTPUT: 1

INPUT: Assess whether reported pIC50 for O=C(CCCc1nc2ccccc2c(=O)[nH]1)N[C@H]1CC[C@H](OCc2ccccc2)C1 (stereo in doubt) sits at 6 or higher.
OUTPUT: 0

INPUT: Assess whether reported pIC50 for CC(=O)N1CCC(C2Cc3[nH]c(=O)c4ccccc4c3CO2)C1 (stereo not shown) sits at 6 or higher.
OUTPUT: 1

INPUT: Assess whether reported pIC50 for NC(=O)c1cc(F)cc2cn(-c3ccc([C@]4(F)CCCNC4)cc3)nc12 sits at 6 or higher.
OUTPUT: 1

INPUT: Assess whether reported pIC50 for O=c1[nH]c2c(c3c1CCCC3)Cc1cc(CNCCN3CCOCC3)ccc1-2 sits at 6 or higher.
OUTPUT: 1

INPUT: Assess whether reported pIC50 for Cc1cncc2c(=O)[nH]c3c(c12)COC(C(C)(C)C)C3 (racemic) sits at 6 or higher.
OUTPUT: 1

---

IC50 values for Poly [ADP-ribose] polymerase 1 (Homo sapiens), compiled from several publications.

INPUT: Identify the reported IC50 for the following entry. CC1(c2cnn3c2[nH]c2cc(F)cc(C(N)=O)c23)CCN(CC2CC2)C1 (stereo not shown)
OUTPUT: 1 to 100 nM

INPUT: Identify the reported IC50 for the following entry. CCCc1cnc(N2CCP(=O)(c3cc(Cc4n[nH]c(=O)c5ccccc45)ccc3F)CC2)nc1
OUTPUT: 100 to 1000 nM

INPUT: Identify the reported IC50 for the following entry. Cc1cc(F)cc(N2CCN([C@H]3C=C(c4nc5c(c(=O)[nH]4)CC4(CC5)CC4)CC3)CC2)c1
OUTPUT: 501 to 5000 nM

INPUT: Identify the reported IC50 for the following entry. O=c1[nH]c(C2=C[C@H](N3CCN(c4ccc(F)c(Cl)c4)CC3)CC2)nc2c1CC1(CC2)CC1
OUTPUT: 501 to 5000 nM

---

IC50 values for UniProt:P09874, compiled from several publications.
MET if IC50 is below 40 nM. NOT MET if not; exact matches included in NOT MET.

INPUT: # TODO verify IC50 < 40 nM strictly for this molecule: N#Cc1ccc(O[C@H]2CC[C@H](NC(=O)CCCc3nc4ccccc4c(=O)[nH]3)CC2)cc1
OUTPUT: NOT MET

INPUT: # TODO verify IC50 < 40 nM strictly for this molecule: O=C(CSc1nc2ccccc2c(=O)[nH]1)N1CCC(c2nnc(-c3ccccc3)o2)CC1
OUTPUT: NOT MET

INPUT: # TODO verify IC50 < 40 nM strictly for this molecule: CC(C)C1Cc2[nH]c(=O)c3ccc([N+](=O)[O-])cc3c2CO1 (racemic)
OUTPUT: MET

INPUT: # TODO verify IC50 < 40 nM strictly for this molecule: O=C(c1cc(Cc2n[nH]c(=O)c3ccccc23)ccc1F)N1C[C@@H]2CC(F)(F)C[C@@H]2C1
OUTPUT: MET

INPUT: # TODO verify IC50 < 40 nM strictly for this molecule: CCc1cc2ncc(CN3CC[C@@H](Oc4cnc(C(=O)NC)c(F)c4)C3)cc2[nH]c1=O
OUTPUT: MET

---

pIC50 values for Poly [ADP-ribose] polymerase 1 (Homo sapiens, UniProt P09874), compiled from several publications.
pIC50: −log10 of the molar value.
Mark 1 for reported pIC50 of 6 or greater; mark 0 for anything smaller.

INPUT: Assess whether reported pIC50 for [2H]C1(c2ccc(-c3[nH]c4cccc5c4c3CONC5=O)cc2)CCCN1 (centres unmarked) sits at 6 or higher.
OUTPUT: 1

INPUT: Assess whether reported pIC50 for [2H]C1(c2ccc(-n3cc4cc(F)cc(C(N)=O)c4n3)c(F)c2)CCCNC1 (centres unmarked) sits at 6 or higher.
OUTPUT: 1

INPUT: Assess whether reported pIC50 for O=C(C1CCOCC1)N1CCC(C2Cc3[nH]c(=O)c4ccccc4c3CO2)CC1 (racemic) sits at 6 or higher.
OUTPUT: 1

INPUT: Assess whether reported pIC50 for Cc1ccc2[nH]c(=O)n(C3CCN(C(=O)CCCc4nc5ccccc5c(=O)[nH]4)CC3)c2c1 sits at 6 or higher.
OUTPUT: 0

INPUT: Assess whether reported pIC50 for CCc1cc2ncc([C@@H](C)N3C[C@H](Oc4ccc(C(=O)NC)nc4)[C@H]3C)cc2[nH]c1=O (single isomer, unassigned) sits at 6 or higher.
OUTPUT: 1

INPUT: Assess whether reported pIC50 for O=c1[nH]c2c(c3ccsc13)Cc1c(CNC3CCCC3)cccc1-2 sits at 6 or higher.
OUTPUT: 1

INPUT: Assess whether reported pIC50 for O=C(c1cc(Cc2n[nH]c(=O)c3ccccc23)ccc1F)N1CC2CN(CC(F)(F)F)CC2C1 (centres unmarked) sits at 6 or higher.
OUTPUT: 1

INPUT: Assess whether reported pIC50 for O=c1[nH]c(-c2ccc(C(F)(F)F)cc2)cn2c(CO)ccc12 sits at 6 or higher.
OUTPUT: 0

INPUT: Assess whether reported pIC50 for CC1Nc2cc(F)cc3c(=O)[nH]nc(c23)C1c1ccc(Cl)c(F)c1 (centres unmarked) sits at 6 or higher.
OUTPUT: 1

INPUT: Assess whether reported pIC50 for NC(=O)c1cc(F)cc2cn(-c3ccc([C@@]4(F)CCCNC4)cc3)nc12 sits at 6 or higher.
OUTPUT: 1

INPUT: Assess whether reported pIC50 for O=C(CCCc1nc2ccccc2c(=O)[nH]1)N[C@H]1CC[C@H](c2ncc(-c3ccccc3)o2)CC1 sits at 6 or higher.
OUTPUT: 0

INPUT: Assess whether reported pIC50 for CC(C)C1Cc2[nH]c(=O)c3ccc(Cl)cc3c2CO1 (racemic) sits at 6 or higher.
OUTPUT: 1

INPUT: Assess whether reported pIC50 for COc1ccc2[nH]c(=O)n(C3CCN(C(=O)CCCc4nc5ccccc5c(=O)[nH]4)CC3)c2c1 sits at 6 or higher.
OUTPUT: 1

INPUT: Assess whether reported pIC50 for CC(C)(C)C1Cc2[nH]c(=O)c3cccnc3c2CO1 (racemic) sits at 6 or higher.
OUTPUT: 1

INPUT: Assess whether reported pIC50 for Cn1ccc2c(=O)[nH]c(N3CCN(c4cc(C(F)(F)F)ccn4)CC3)nc21 sits at 6 or higher.
OUTPUT: 1

INPUT: Assess whether reported pIC50 for Cc1nc2ccc([C@H](C)N3CCN(c4ccc(C(=O)NC5CC5)nc4)CC3)c(F)c2[nH]c1=O (single isomer, unassigned) sits at 6 or higher.
OUTPUT: 1

INPUT: Assess whether reported pIC50 for CC1(c2nc3c(C(N)=O)cccc3[nH]2)Cc2ccccc2CN1C(=O)OCc1ccccc1 (centres unmarked) sits at 6 or higher.
OUTPUT: 0
